Values compiled from PubChem BioAssay (Tox21).

Test: qHTS assay to identify small molecule antagonists of the androgen receptor (AR) signaling pathway using the MDA cell line in the presence of 0.5 nM R1881 - cell viability counter screen (AID 1259242); further: nearly all actives have a fitted effect of over 45% in size
Settings: MDA-kb2 viability, CellTiter-Fluor protease fluorescence, 16 h; series mostly up to 92.4 µM
Results filed as inconclusive are left out. Activity calls are given as the source filed them. The call rests on the fitted dose curve; in most records, active means well fitted cell-killing curve with a large enough effect in the repeat runs; inconclusive means weak or mixed curves, or effect the other way; inactive means flat fitted curve, though single readings scatter.
Possible outcomes: active, inactive

{"COMPOUND": "CCN(CC)C(=O)/C(Cl)=C(\\C)OP(=O)(OC)OC", "ASSIGNED CATEGORY": "inactive"}
{"COMPOUND": "CCOC(=O)C(C)OC(=O)c1cc(Oc2ccc(C(F)(F)F)cc2Cl)ccc1[N+](=O)[O-] (configuration not stated)", "ASSIGNED CATEGORY": "inactive"}
{"COMPOUND": "CCN(CC)N=O", "ASSIGNED CATEGORY": "inactive"}
{"COMPOUND": "COP(=S)(OC)Oc1ccc([N+](=O)[O-])cc1", "ASSIGNED CATEGORY": "inactive"}
{"COMPOUND": "O=C(CCl)c1ccccc1", "ASSIGNED CATEGORY": "inactive"}
{"COMPOUND": "CCCCCCOC(=O)c1ccccc1C(=O)OCCCCCC", "ASSIGNED CATEGORY": "inactive"}
{"COMPOUND": "c1ccc(-c2cccc(-c3ccccc3)c2)cc1", "ASSIGNED CATEGORY": "inactive"}
{"COMPOUND": "O=C(Nc1ccc(Br)cc1)c1cc(Br)cc(Br)c1O", "ASSIGNED CATEGORY": "active"}
{"COMPOUND": "N#CCCCl", "ASSIGNED CATEGORY": "inactive"}
{"COMPOUND": "C#CCOS(=O)OC1CCCCC1Oc1ccc(C(C)(C)C)cc1 (configuration not stated)", "ASSIGNED CATEGORY": "active"}
{"COMPOUND": "CCN(CC)C(=O)SCc1ccc(Cl)cc1", "ASSIGNED CATEGORY": "inactive"}
{"COMPOUND": "CN(C)c1ccc(C(=O)c2ccc(N(C)C)cc2)cc1", "ASSIGNED CATEGORY": "inactive"}
{"COMPOUND": "OCC(O)CO", "ASSIGNED CATEGORY": "inactive"}
{"COMPOUND": "CC(C)(c1cc(Cl)c(O)c(Cl)c1)c1cc(Cl)c(O)c(Cl)c1", "ASSIGNED CATEGORY": "inactive"}
{"COMPOUND": "C=CCc1ccc2c(c1)OCO2", "ASSIGNED CATEGORY": "inactive"}
{"COMPOUND": "CCOCN(C(=O)CCl)c1c(C)cccc1CC", "ASSIGNED CATEGORY": "inactive"}
{"COMPOUND": "NNC(=S)NN", "ASSIGNED CATEGORY": "inactive"}
{"COMPOUND": "COP(=S)(OC)Oc1cc(Cl)c(Cl)cc1Cl", "ASSIGNED CATEGORY": "inactive"}
{"COMPOUND": "C=CCN(CC=C)C(=O)C(Cl)Cl", "ASSIGNED CATEGORY": "inactive"}
{"COMPOUND": "CCC(=O)O[C@H]1CC[C@H]2[C@@H]3CCC4=CC(=O)CC[C@]4(C)[C@H]3CC[C@]12C", "ASSIGNED CATEGORY": "inactive"}
{"COMPOUND": "CC(C)(OOC(C)(C)c1ccccc1)c1ccccc1", "ASSIGNED CATEGORY": "inactive"}
{"COMPOUND": "O=P(Oc1ccccc1)(Oc1ccccc1)Oc1ccccc1", "ASSIGNED CATEGORY": "inactive"}
{"COMPOUND": "C=C(C)C(=O)OCC1CO1 (configuration not stated)", "ASSIGNED CATEGORY": "inactive"}
{"COMPOUND": "CCCCOCCOP(=O)(OCCOCCCC)OCCOCCCC", "ASSIGNED CATEGORY": "inactive"}
{"COMPOUND": "CCCCC(CC)COC(=O)Cl (configuration not stated)", "ASSIGNED CATEGORY": "inactive"}
{"COMPOUND": "CCCCC(CC)COC(=O)c1ccc(C(=O)OCC(CC)CCCC)c(C(=O)OCC(CC)CCCC)c1 (configuration not stated)", "ASSIGNED CATEGORY": "inactive"}
{"COMPOUND": "Cc1c(COC(=O)[C@@H]2[C@H](/C=C(\\Cl)C(F)(F)F)C2(C)C)cccc1-c1ccccc1", "ASSIGNED CATEGORY": "inactive"}
